# target: Recombinant human GR (Homo sapiens)
# Construct: purchased Invitrogen P2816
# protocol description: Evaluation test for binding activity to glucocorticoid receptor: receptor competitor assay by fluorescence polarization (Invitrogen GR competitor assay kit, cat No. P2816)
# condition parameters: 20 μM test compound solution, 10 μL per well plus 5 μL 4×GS1 and 5 μL 4×GR solution; room temperature 2 to 4 hours; a ratio of 100% or more is indicated by 100%
measurement kind: inhibition at 20 µM (stock) (%)
Express it in %; write the number only.

Use the examples below as a reference point.
COc1ccccc1NCc1c(-c2ccc(OC(=O)c3ccc(C)nc3)cc2OC)ccc2c1C(C)=CC(C)(C)N2	92
COc1ccccc1NCc1c(-c2ccc(OC(=O)c3cccnc3C)cc2OC)ccc2c1C(C)=CC(C)(C)N2	100
COC(=O)c1cccc(C(=O)Oc2ccc(-c3ccc4c(c3CNc3ccccc3OC)C(C)=CC(C)(C)N4)c(OC)c2)c1	86
COc1cc(OC(=O)c2ccccc2Cl)ccc1-c1ccc2c(c1CNc1cc(F)ccc1C)C(C)=CC(C)(C)N2	90

### Prompt // returns reported inhibition at 20 µM (stock) for input `COc1cc(OC(=O)c2ccco2)ccc1-c1ccc2c(c1CNc1cc(F)ccc1C)C(C)=CC(C)(C)N2`
### Response 99

### Prompt Which inhibition at 20 µM (stock) value belongs to `COc1cc(OS(C)(=O)=O)ccc1-c1ccc2c(c1CNc1cc(F)ccc1C)C(C)=CC(C)(C)N2` ?
### Response 100

### Prompt Entry `COc1cc(OC(=O)c2ccccc2F)ccc1-c1ccc2c(c1CNc1cc(F)ccc1C)C(C)=CC(C)(C)N2` : reported inhibition at 20 µM (stock) = ?
### Response 100

---

# target: Recombinant human GR (Homo sapiens, UniProt P04150)
# Construct: purchased Invitrogen P2816
# Sequence (P04150 whole entry): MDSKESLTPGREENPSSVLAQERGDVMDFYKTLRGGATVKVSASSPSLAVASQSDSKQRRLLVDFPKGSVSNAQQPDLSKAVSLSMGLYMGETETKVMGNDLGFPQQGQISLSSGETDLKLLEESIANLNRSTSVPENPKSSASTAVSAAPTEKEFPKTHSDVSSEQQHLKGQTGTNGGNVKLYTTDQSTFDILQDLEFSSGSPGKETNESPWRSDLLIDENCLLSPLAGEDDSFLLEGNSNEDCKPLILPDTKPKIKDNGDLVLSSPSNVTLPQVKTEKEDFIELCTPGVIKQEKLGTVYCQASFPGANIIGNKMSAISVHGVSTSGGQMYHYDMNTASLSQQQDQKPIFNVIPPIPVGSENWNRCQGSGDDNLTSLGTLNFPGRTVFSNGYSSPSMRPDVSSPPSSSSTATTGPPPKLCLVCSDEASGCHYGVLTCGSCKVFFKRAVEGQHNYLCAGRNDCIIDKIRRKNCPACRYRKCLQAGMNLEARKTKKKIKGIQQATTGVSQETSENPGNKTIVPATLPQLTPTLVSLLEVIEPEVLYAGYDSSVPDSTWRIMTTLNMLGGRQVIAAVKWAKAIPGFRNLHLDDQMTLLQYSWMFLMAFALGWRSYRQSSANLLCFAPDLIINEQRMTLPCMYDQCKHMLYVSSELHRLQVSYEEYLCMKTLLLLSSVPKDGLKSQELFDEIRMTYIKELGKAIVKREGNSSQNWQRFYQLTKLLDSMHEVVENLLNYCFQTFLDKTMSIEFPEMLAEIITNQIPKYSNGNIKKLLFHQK
# protocol description: Evaluation test for binding activity to glucocorticoid receptor: receptor competitor assay by fluorescence polarization (Invitrogen GR competitor assay kit, cat No. P2816)
# condition parameters: 20 μM test compound solution, 10 μL per well plus 5 μL 4×GS1 and 5 μL 4×GR solution; room temperature 2 to 4 hours; a ratio of 100% or more is indicated by 100%
measurement kind: inhibition at 20 µM (stock) (%)
Give the quantity in %, number only.

COc1ccccc1NCc1c(-c2ccc(OC(=O)c3ccsc3)cc2OC)ccc2c1C(C)=CC(C)(C)N2 [Compound 1-7]	95

### Prompt Value lookup for inhibition at 20 µM (stock); key = COc1cc(OC(=O)c2cccnc2C)ccc1-c1ccc2c(c1CNc1cc(F)ccc1C)C(C)=CC(C)(C)N2 [Compound 1-38]
### Response 100

### Prompt // query inhibition at 20 µM (stock) value for entry COc1ccccc1NCc1c(-c2ccc(OS(=O)(=O)C3CCCC3)cc2OC)ccc2c1C(C)=CC(C)(C)N2 [Compound 2-10]
### Response 100

### Prompt Recorded inhibition at 20 µM (stock) of COc1ccccc1NCc1c(-c2ccc(OC(=O)c3ccccc3F)cc2OC)ccc2c1C(C)=CC(C)(C)N2 [Compound 1-12] , please.
### Response 99

### Prompt What value of inhibition at 20 µM (stock) has been reported for the following compound? COc1ccccc1NCc1c(-c2ccc(OC(=O)c3ccc(F)cc3)cc2OC)ccc2c1C(C)=CC(C)(C)N2 [Compound 1-23]
### Response 86

### Prompt Consider the compound COc1cc(OC(=O)c2cccnc2)ccc1-c1ccc2c(c1CNc1cc(F)ccc1C)C(C)=CC(C)(C)N2 [Compound 1-16] and give its measured inhibition at 20 µM (stock).
### Response 100

### Prompt Consider the compound COc1cc(OC(=O)c2cccnc2OC)ccc1-c1ccc2c(c1CNc1cc(F)ccc1C)C(C)=CC(C)(C)N2 [Compound 1-41] and give its measured inhibition at 20 µM (stock).
### Response 100
